Recorded pIC50, one value per entry.
target desc: MTHFD2 recombinant human enzyme (Homo sapiens)
Sequence (P13995 36-350): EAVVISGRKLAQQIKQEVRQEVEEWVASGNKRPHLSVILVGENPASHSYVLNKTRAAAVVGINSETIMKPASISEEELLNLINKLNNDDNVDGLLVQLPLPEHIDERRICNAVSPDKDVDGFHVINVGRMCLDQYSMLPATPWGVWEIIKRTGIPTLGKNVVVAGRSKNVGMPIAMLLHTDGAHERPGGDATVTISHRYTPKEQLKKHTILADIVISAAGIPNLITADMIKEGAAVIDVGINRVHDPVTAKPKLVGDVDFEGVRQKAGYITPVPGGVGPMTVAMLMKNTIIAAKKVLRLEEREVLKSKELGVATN
method description: MTHFD2 inhibition assay (NAD(P)H-Glo luminescence)
pIC50: −log10 of the molar value.
attribute measured: pIC50

- chemical structure: "Cc1c(N2CCN3CCOC[C@H]3C2)cc(C)c2c3c(c(=O)oc12)CN(C(=O)c1ccc(C(=O)NS(=O)(=O)N2CCCC2)c(OC2CCC2)c1)CC3"
  target desc: "MTHFD2 recombinant human enzyme (Homo sapiens)"
  val: "6.00 to 7.00"
- chemical structure: "COC[C@H]1CN(c2ccc3c4c(c(=O)oc3c2Cl)CN(C(=O)c2ccc(C(=O)NS(=O)(=O)N3CCCC3)c(OC3CCC3)c2F)CC4)CCN1C"
  target desc: "MTHFD2 recombinant human enzyme (Homo sapiens)"
  val: "7.00 to 8.00"
- chemical structure: "CCOc1c(C(=O)NS(=O)(=O)N2CC3CCC(C3)C2)ccc(C(=O)N2CCc3c(c(=O)oc4c(C)c(N5CCN(C)[C@@H](COC)C5)cc(C)c34)C2)c1F"
  target desc: "MTHFD2 recombinant human enzyme (Homo sapiens)"
  val: "7.00 to 8.00"
- chemical structure: "CCc1cc(N2CCN(C)[C@@H](COC)C2)c(C)c2oc(=O)c3c(c12)CCN(C(=O)c1cc(N(C)C)c(C(=O)NS(=O)(=O)N2CCCC2)cc1F)C3"
  target desc: "MTHFD2 recombinant human enzyme (Homo sapiens)"
  val: "8.00 to 9.00"
- chemical structure: "COC[C@H]1CN(c2cc(C)c3c4c(c(=O)oc3c2C)CN(C(=O)c2ccc(C(=O)NS(=O)(=O)N(C)C)c(O[C@@H]3C[C@@H]5C[C@@H]5C3)c2F)CC4)CCN1C"
  target desc: "MTHFD2 recombinant human enzyme (Homo sapiens)"
  val: "8.00 to 9.00"
- chemical structure: "COC[C@H]1CN(c2cc(Cl)c3c4c(c(=O)oc3c2C)CN(C(=O)c2ccc(C(=O)NS(=O)(=O)N3CCC[C@H]3COC)c(OC)c2)CC4)CCN1C"
  target desc: "MTHFD2 recombinant human enzyme (Homo sapiens)"
  val: "7.00 to 8.00"
- chemical structure: "COC[C@H]1CN(c2cc(C)c3c4c(c(=O)oc3c2C)CN(C(=O)c2cc(N(C)C)c(C(=O)NS(=O)(=O)N3CC[C@H](F)C3)cc2F)CC4)CCN1C"
  target desc: "MTHFD2 recombinant human enzyme (Homo sapiens)"
  val: "8.00 to 9.00"
- chemical structure: "[2H]C([2H])([2H])Oc1cc(C(=O)N2CCc3c(c(=O)oc4c(C)c(N5CCN(C)[C@@H](COC)C5)cc(C)c34)C2)c(F)cc1C(=O)NS(=O)(=O)N1C2CCC1CC2"
  target desc: "MTHFD2 recombinant human enzyme (Homo sapiens)"
  val: "8.00 to 9.00"
- chemical structure: "COC[C@H]1CN(c2cc(C)c3c4c(c(=O)oc3c2C)CN(C(=O)c2cc(N(C)C)c(C(=O)NS(=O)(=O)N3CC[C@@H](F)C3)cc2F)CC4)CCN1C"
  target desc: "MTHFD2 recombinant human enzyme (Homo sapiens)"
  val: "8.00 to 9.00"
- chemical structure: "CCOc1cc(C(=O)N2CCc3c(c(=O)oc4c(C)c(N5CCN(C)[C@@H](COC)C5)cc(C)c34)C2)c(F)cc1C(=O)NS(=O)(=O)N1CC2(CCC2)C1"
  target desc: "MTHFD2 recombinant human enzyme (Homo sapiens)"
  val: "7.00 to 8.00"
